assay: Inhibition of [3H]phorbol-12,13-dibutyrate binding to mouse brain protein kinase C (calculated value from percent inhibition at 100 ug/mL)
pKi: −log10 of the molar value.

| SMILES_STR | pKi |
| --- | --- |
| O=C1C[C@@H](OC(=O)Cc2ccccc2)[C@H](CO)O1 | 3.65 |
